System: PfAP2-G AP2 domain (GST-tagged)
Assay: gcPBM binding intensity (ln(normalized median fluorescence intensity)); higher = stronger DNA binding
In all, about 25,000 sequences were measured (“ln(normalized median fluorescence intensity)”: median about 10, highest 2% from about 12 on). The sample holds the highest values, similar sequences and a random draw of the others, so the mix is not that of the screen.
gcPBM binding intensity (ln) values for the sequences below.

Seq String	Assayed Target	gcPBM binding intensity (ln)
TGATGCAAGATATATACACACATATAAATATAAATA [CACACA_site7429]	PfAP2-G AP2 domain (GST-tagged)	9.8
ACTTGACACGGACACACACACATATATAAAAAAAAA [CACACA_site4576]	PfAP2-G AP2 domain (GST-tagged)	11.2
TAAAAAAAAAGAAGCTGTACTAAAAAATTTATATTA [XGTACX_site7408]	PfAP2-G AP2 domain (GST-tagged)	11.1
TATATATAAAGGTGTACACATATATATATATCTGTA [CACACA_site5311]	PfAP2-G AP2 domain (GST-tagged)	11.7
AAAAAAAAAAAAAGTACACACTTATAAAATATTATG [CACACA_site4639]	PfAP2-G AP2 domain (GST-tagged)	11.6
CAAATGGTAAATGAAAGTACAAATTGTTTTGATTAA [XGTACX_site1536]	PfAP2-G AP2 domain (GST-tagged)	10.8
AATACAATATAAAGGTGTACATATATATATATATAT [XGTACX_site68]	PfAP2-G AP2 domain (GST-tagged)	11.4
TATATATATCTGTACACACACACATATAAATAAATA [CACACA_site4405]	PfAP2-G AP2 domain (GST-tagged)	11.4
TAAAGTTATGCAATAACACACATATACAATACATAT [CACACA_site6698]	PfAP2-G AP2 domain (GST-tagged)	9.98

This collection of values is drawn from the supplement of paper PMC11417369.
